Assay target: Histone-lysine N-methyltransferase EHMT2 (Homo sapiens) (UniProt Q96KQ7)
Sequence (Q96KQ7 913-1193 limits assumed): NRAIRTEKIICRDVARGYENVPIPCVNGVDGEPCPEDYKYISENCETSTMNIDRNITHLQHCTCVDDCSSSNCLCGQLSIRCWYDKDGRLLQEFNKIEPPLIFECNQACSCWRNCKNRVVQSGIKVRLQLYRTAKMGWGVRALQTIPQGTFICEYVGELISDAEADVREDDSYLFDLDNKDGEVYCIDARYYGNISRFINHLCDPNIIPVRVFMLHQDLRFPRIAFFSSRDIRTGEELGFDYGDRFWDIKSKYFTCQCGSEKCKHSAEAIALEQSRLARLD
Test description: qHTS Assay for Inhibitors of Histone Lysine Methyltransferase G9a; further: nearly all actives have a fitted effect of over 75% in size; on activity, negative = inhibition: on the % scale 0 is the no-effect control and ±100 the full control effect
Protocol conditions: G9a H3K9 monomethylation, AlphaScreen, 2 h; series mostly up to 59 µM
Among all 350,000 compounds or so, about 31,000 (8.9%) were called active. Another 15% or so got no clear call; they are omitted. Shown is part of a subset that was picked to be rich in actives.
activity, negative = inhibition reference

Examples with their reported activity, negative = inhibition follow.
N#Cc1nc(-c2cccc3ccccc23)oc1N :: 2.47% [at 2.33 µM] (inactive)
Cc1sc2ncnc(SCC(=O)Nc3ccc(CN4CCCC4)cc3)c2c1C :: 10.2% [at 12.7 µM] (inactive)
COc1cc(C(=O)NCC(=O)NCCSc2ccc(Br)cc2)cc(OC)c1OC :: 10% [at 0.501 µM] (inactive)
Cc1ccc(S(=O)(=O)n2cccc2CO)cc1 :: 0.915% [at 2.33 µM] (inactive)
Cc1ccc(/C=C/C(=O)OCC(=O)NCc2ccc(Cl)cc2)o1 :: -2.38% [at 2.33 µM] (inactive)

Value wanted: activity, negative = inhibition (Histone-lysine N-methyltransferase EHMT2 (Homo sapiens) (UniProt Q96KQ7)) of entry Cc1nc2ccc(NC(=O)N3CCC(c4ccccc4)C3)cc2nc1C (stereo not drawn)
12.3% [at 12.7 µM] (inactive)

Value wanted: activity, negative = inhibition (Histone-lysine N-methyltransferase EHMT2 (Homo sapiens) (UniProt Q96KQ7)) of entry `O=C(CNc1cccc(S(=O)(=O)N2CCCCC2)c1)Nc1ccccc1F`
14.7% [at 12.7 µM] (inactive)

Value wanted: activity, negative = inhibition (Histone-lysine N-methyltransferase EHMT2 (Homo sapiens) (UniProt Q96KQ7)) of entry `COc1ccccc1/C=C/C(=O)OCC(=O)NC1CCCCCC1`
25.2% [at 2.33 µM] (inactive)

Value wanted: activity, negative = inhibition (Histone-lysine N-methyltransferase EHMT2 (Homo sapiens) (UniProt Q96KQ7)) of entry `COc1ccccc1OCCOc1ccc(/C=N/n2cnnc2)cc1`
-8.1% [at 12.7 µM] (inactive)

Value wanted: activity, negative = inhibition (Histone-lysine N-methyltransferase EHMT2 (Homo sapiens) (UniProt Q96KQ7)) of entry `CC(=O)NS(=O)(=O)c1ccc2c(c1)Cc1cc(S(=O)(=O)NC(C)=O)ccc1-2`
-3.76% [at 0.501 µM] (inactive)

Value wanted: activity, negative = inhibition (Histone-lysine N-methyltransferase EHMT2 (Homo sapiens) (UniProt Q96KQ7)) of entry `O=C(CSc1ccccc1)Nc1cccc(S(=O)(=O)N2CCOCC2)c1`
7.75% [at 12.7 µM] (inactive)

Value wanted: activity, negative = inhibition (Histone-lysine N-methyltransferase EHMT2 (Homo sapiens) (UniProt Q96KQ7)) of entry `Cc1ccc(S(=O)(=O)Nc2nc(CN3CCOCC3)nc3sc(C)c(C)c23)cc1`
19.1% [at 2.33 µM] (inactive)

----------
Assay target: Histone-lysine N-methyltransferase EHMT2 (Homo sapiens)
Test description: qHTS Assay for Inhibitors of Histone Lysine Methyltransferase G9a; further: nearly all actives have a fitted effect of over 75% in size
Protocol conditions: G9a H3K9 monomethylation, AlphaScreen, 2 h; series mostly up to 59 µM
Out of some 350,000 compounds screened, about 31,000 (8.9%) were called active. Another 15% or so got no clear call; they are omitted. The call rests on the fitted dose curve; in most records, active means well fitted inhibition curve with a large enough effect; inconclusive means small, poorly fitted or top-dose-only effect; inactive means no such curve, though single readings can be large or run the other way. This is one part of a sample in which actives are shown more often than they occur.
Hi! Could you answer with just one of these? active, inactive

Example entries and their recorded answers appear below.
COc1ccc(C2CC(=O)N(Cc3ccccc3C)c3c2c(C)nn3-c2nc(C)cc(C)n2)c(OC)c1 (stereo unspecified) :: inactive
CCN(CC)CCCNC(=O)c1cc2c(=O)[nH]c3ccc(C)cc3c2s1 :: inactive
Cc1ccc(C)n1C(Cc1ccccc1)C(=O)O (stereo unspecified) :: active

For CC(CN1CCCCC1)c1ccccc1 (stereo unspecified) , which call appears in the assay record?
active

For CC(CN1CCC(n2nccc2NC(=O)C2CCCC2)CC1)c1ccccc1 (stereo unspecified) , which call appears in the assay record?
inactive

For `CCN(C(=O)CSc1ncnc2sccc12)c1c(N)n(Cc2ccccc2)c(=O)[nH]c1=O` , which call appears in the assay record?
inactive

For COc1ccc(CNC(=O)C(Cc2ccccc2)n2cccc2)cc1 (stereo unspecified) , which call appears in the assay record?
inactive

For COc1ccccc1N1N=C(c2cccs2)CC1c1ccccc1 (stereo unspecified) , which call appears in the assay record?
inactive

For `Cc1ccc(N/N=C2\COC(C)(C)CC2=O)cc1` , which call appears in the assay record?
active

For COc1ccc(OC)c(NC(=O)CSC2=Nc3ccccc3C3=NC(CC(=O)NCc4ccc(F)cc4)C(=O)N23)c1 (stereo unspecified) , which call appears in the assay record?
inactive

For `Cc1ccc(NN=C2C(=O)OC(C)(C)OC2=O)c(C)c1` , which call appears in the assay record?
inactive
